Molecular target: T1, recombinant monkey CD73 protein (monkey, UniProt A0A2K5V5U7 27-549)
T1 construct: Monkey species not further named for the recombinant protein (the cell line is called cynoCD73)
T1 sequence: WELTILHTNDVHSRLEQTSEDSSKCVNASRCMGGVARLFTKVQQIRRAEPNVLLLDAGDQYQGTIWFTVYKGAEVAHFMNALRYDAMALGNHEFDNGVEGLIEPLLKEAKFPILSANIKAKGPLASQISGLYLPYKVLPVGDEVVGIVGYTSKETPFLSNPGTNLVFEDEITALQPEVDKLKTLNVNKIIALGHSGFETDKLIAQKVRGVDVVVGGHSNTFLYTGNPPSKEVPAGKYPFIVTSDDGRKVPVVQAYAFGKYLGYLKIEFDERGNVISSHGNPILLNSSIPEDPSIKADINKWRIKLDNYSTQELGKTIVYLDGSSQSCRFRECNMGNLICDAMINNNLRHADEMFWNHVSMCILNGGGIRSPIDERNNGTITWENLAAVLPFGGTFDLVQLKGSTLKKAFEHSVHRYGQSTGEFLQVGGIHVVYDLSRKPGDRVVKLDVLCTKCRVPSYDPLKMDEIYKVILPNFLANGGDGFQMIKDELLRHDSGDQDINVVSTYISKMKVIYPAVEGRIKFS
Assay: ELISA, recombinant monkey CD73
Measurement Type: EC50 (µg/mL)

humanized CQ137 monoclonal antibody (137-8) (antibody, V domains shown) VH: QVQLVQSGAEVKKPGSSVKVSCKASGYSFTGYYIHWVRQAPGQGLEWMGRINPYNGATTYNQNFKDRVTITVDKSTSTAYMELSSLRSEDTAVYYCARFHYGAPDFWGQGTLVTVSS VL: DIQMTQSPSSLSASVGDRVTITCKASQDINTYLTWYQQKPGKAPKTLIYRANILVDGVPSRFSGSGSGTDFTLTISSLQPEDFATYYCLQYDQFPLTFGGGTKVEIKR ... 3.76

FYI, the data here is from patent US20240174763A1.
